Exercise: for every item that follows, state its recorded Emax.
# target under test: CatSper (Homo sapiens, UniProt Q7RTX7+Q86XQ3+Q8NEC5+Q96P56)
# assay protocol: Human sperm calcium influx assay, activation
# Assay type: cell-based
# condition details: read-out: Emax, %, Steroid Alone
Lab book: enter the figure in %, no units written.

In: Read the entry "C[C@]12CC[C@H]3[C@@H](CCC4=CC(=O)CC[C@@]43C)[C@@H]1CC[C@@H]2O" and write its reported Emax.
Out: 114

In: Identify the reported Emax for the following entry. CCCCC[C@H](O)/C=C/[C@H]1[C@H](O)CC(=O)[C@@H]1CCCCCCC(=O)O [compound 2, prostaglandin E1]
Out: 101

In: Look up and state reported Emax for "C[C@]12CC[C@@H]3c4ccc(O)cc4CC[C@H]3[C@@H]1CC[C@@H]2O"
Out: 94

In: Given CC(=O)O[C@]1(C(C)=O)CC[C@H]2[C@@H]3C[C@H](C)C4=CC(=O)CC[C@]4(C)[C@H]3CC[C@@]21C [compound 4, medroxyprogesterone acetate] , respond with its Emax.
Out: 17

In: Consider the compound CC(=O)[C@H]1CC[C@H]2[C@@H]3CCC4=CC(=O)CC[C@]4(C)[C@H]3[C@@H](O)C[C@]12C [compound 23, 11β-hydroxyprogesterone] and give its recorded Emax.
Out: 90

In: For the compound "C#C[C@]1(O)CC[C@H]2[C@@H]3CCC4=CC(=O)CC[C@@H]4[C@H]3CC[C@@]21CC" , give its measured Emax value.
Out: 15

----------
Could you please report measured Emax, %, Steroid Alone for the items listed next?
# target under test: CatSper (Homo sapiens, UniProt Q7RTX7+Q86XQ3+Q8NEC5+Q96P56)
# assay protocol: Human sperm calcium influx assay, activation
# Format: cell-based
# condition details: percent of response to saturating PROG (3 µM)
Unit % implied. Number only.

In: Supply Emax, %, Steroid Alone value. Item: "C[C@H]1C[C@]2(C)[C@@H](O)CC[C@H]2[C@H]2[C@H]1[C@H]1CCC(=O)C=C1C[C@@H]2C"
Out: 42

In: Tell me its Emax, %, Steroid Alone given CC(=O)[C@H]1CC[C@H]2[C@@H]3CCC4=CC(=O)CC[C@]4(C)[C@H]3[C@H](O)C[C@]12C [compound 24, 11α-hydroxyprogesterone] as the entry.
Out: 100

In: Given the molecule "CC(=O)O[C@]1(C(C)=O)CC[C@H]2[C@@H]3CCC4=CC(=O)CC[C@]4(C)[C@H]3CC[C@@]21C" , write its reported Emax, %, Steroid Alone.
Out: 31

In: Report Emax, %, Steroid Alone for "CC(=O)[C@H]1CC[C@H]2[C@@H]3C[C@@H](C)C4=CC(=O)CC[C@]4(C)[C@H]3CC[C@]12C"
Out: 90

In: Provide only the value of recorded Emax, %, Steroid Alone for CC(=O)[C@@]1(O)CC[C@H]2[C@@H]3C[C@H](C)C4=CC(=O)CC[C@]4(C)[C@H]3CC[C@@]21C [compound 30, 17α-hydroxy-6α-methylprogesterone]
Out: 96

In: Assign Emax, %, Steroid Alone to the following record: C=C1C[C@H]2[C@@H]3CCC4=CC(=O)CC[C@@H]4[C@H]3CC[C@]2(C)[C@@]1(OC(C)=O)C(C)=O [compound 35, segesterone acetate]
Out: 57

In: Give reported Emax, %, Steroid Alone value for "CC(=O)[C@H]1CC[C@H]2[C@@H]3CCC4=CC(=O)C(C)(C)C[C@]4(C)[C@H]3CC[C@]12C"
Out: 99

In: Entry "C[C@H]1C[C@]2(C)[C@@H](O)CC[C@H]2[C@@H]2CCC3=CC(=O)CC[C@@H]3[C@H]21" needs its Emax, %, Steroid Alone filled in; supply it.
Out: 85

In: Supply reported Emax, %, Steroid Alone belonging to this molecule: "C[C@]12CC[C@@H](O)C[C@@H]1CC[C@@H]1[C@@H]2CC[C@]2(C)[C@@H](C(=O)CO)CC[C@@H]12"
Out: 96

In: Supply Emax, %, Steroid Alone value. Item: "CC(=O)[C@H]1CC[C@H]2[C@@H]3C[C@H](C)C4=CC(=O)CC[C@]4(C)[C@H]3CC[C@]12C"
Out: 96

In: Please look at this molecule and report its Emax, %, Steroid Alone: "C[C@@H]1CC2=CC(=O)CC[C@@H]2[C@H]2CC[C@]3(C)[C@@H](O)CC[C@H]3[C@@H]21"
Out: 86

In: Return value of Emax, %, Steroid Alone for input "C[C@]12CC[C@@H](O)C[C@H]1CC[C@@H]1[C@@H]2CC[C@]2(C)[C@@H](C(=O)CO)CC[C@@H]12" , no commentary.
Out: 100
